Test system: BHK 21 Syrian hamster fibroblast line
protocol: DNA, RNA and protein syntheses in BHK monolayers exposed to filtered medium preincubated with Cr compounds;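 further: DNA, RNA and protein synthesis in BHK cultures assessed by incorporation of labelled precursors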
Type: cell-based
condition_notes: preincubated 48 h with 0.5 mg/ml; cells exposed 24 h
# Lookup of reported RNA synthesis, preinc. in MEM+BHK keyed by entry

Take a look at these entries with their results.
>>> print(df.to_string())
                                   molecule             result
0  [O]=[Cr](=[O])([O-])[O-].[O]=[Pb].[Pb+2] [Chromium orange, Basic lead chromate]  100 % of controls
1  [K+].[K+].[O]=[Cr](=[O])([O-])[O][Cr](=[O])(=[O])[O-] [Potassium dichromate]   49 % of controls
2  O=S(=O)([O-])[O-].O=S(=O)([O-])[O-].O=S(=O)([O-])[O-].[Cr+3].[Cr+3] [Chromium sulphate]  100 % of controls

Then this molecule:
For [Cl][Cr]([Cl])[Cl] [Chromium chloride] , what is its reported RNA synthesis, preinc. in MEM+BHK?
100 % of controls
